Measured self-cleavage, listed per entry for reference.
B1: HDV Ribozyme (parent)
chain: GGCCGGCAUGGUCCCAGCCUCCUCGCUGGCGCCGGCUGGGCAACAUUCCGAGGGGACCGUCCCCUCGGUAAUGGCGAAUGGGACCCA

Variants of: B1
TEST SUMMARY: self-cleavage, relative activity (ratio to wild type); higher = more cleavage; co-transcriptional
PROPERTY MEASURED: self-cleavage

# MUTATION NOTATION, PROPERTY MEASURED, NUMERIC RESULT
rows = [
    ("G17A C64G", "self-cleavage", 0.496),
    ("C63A U79G", "self-cleavage", 0.682),
    ("A78C U79A", "self-cleavage", 0.0978),
    ("U12G C33A", "self-cleavage", 0),
    ("C4U C85A", "self-cleavage", 0.341),
    ("U12G U72G", "self-cleavage", 0.128),
    ("U27C C61U", "self-cleavage", 0.978),
    ("U46A U79C", "self-cleavage", 0.215),
    ("A43G G76A", "self-cleavage", 0.391),
    ("G5U C44U", "self-cleavage", 0.369),
    ("C32G G81U", "self-cleavage", 0.0639),
    ("U27A A43C", "self-cleavage", 0.0723),
    ("C57A A83U", "self-cleavage", 0.554),
    ("G50A C66U", "self-cleavage", 0.989),
    ("G28U C41G", "self-cleavage", 0.116),
    ("G5U A77G", "self-cleavage", 0.227),
    ("C3G G38C", "self-cleavage", 0.192),
    ("C36U G39U", "self-cleavage", 0.245),
    ("G6U C57A", "self-cleavage", 0.623),
    ("C13A G53U", "self-cleavage", 0.138),
    ("G29C G59A", "self-cleavage", 0.0332),
    ("A8C A77C", "self-cleavage", 0.317),
    ("G11A C19U", "self-cleavage", 0.073),
    ("C33G U72G", "self-cleavage", 0),
    ("G17A C49G", "self-cleavage", 0.565),
    ("C15A C44A", "self-cleavage", 0.529),
    ("C26A G38U", "self-cleavage", 0.208),
    ("G35U C63G", "self-cleavage", 0.262),
    ("G38C C63G", "self-cleavage", 0.287),
    ("G2A A16U", "self-cleavage", 0.0665),
    ("G31U U46A", "self-cleavage", 0.0755),
    ("A45G G52A", "self-cleavage", 0.875),
    ("G52C A83C", "self-cleavage", 0.475),
    ("A16G C44A", "self-cleavage", 0.748),
    ("C36A C75U", "self-cleavage", 0.0963),
    ("C7U C57G", "self-cleavage", 1.2),
    ("C3U C64G", "self-cleavage", 0.915),
    ("C3U C32U", "self-cleavage", 0.338),
    ("C33A U72G", "self-cleavage", 0.122),
    ("U46A A83C", "self-cleavage", 0.323),
    ("C21G A78U", "self-cleavage", 0.196),
    ("A8C C66A", "self-cleavage", 0.831),
    ("U46G U72G", "self-cleavage", 0.623),
    ("C24U A56U", "self-cleavage", 0.401),
    ("C57A C58G", "self-cleavage", 1.14),
    ("C30U A71G", "self-cleavage", 0.633),
    ("G68A G76C", "self-cleavage", 0.88),
    ("U12A C14G", "self-cleavage", 0.145),
    ("C19A G68A", "self-cleavage", 0.0631),
    ("C21U G55C", "self-cleavage", 0.18),
    ("G50C A56G", "self-cleavage", 0.734),
    ("C3U G10A", "self-cleavage", 0.513),
    ("U12A C26U", "self-cleavage", 0.982),
]

These entries and their values trace back to the RNAGym collection of RNA variant scans (doi:10.7554/elife.80360).
